Reference source for all entries: the Immune Epitope Database (IEDB)

Molecular target: HLA-A*30:02
Test: IEDB peptide-MHC binding, purified MHC/competitive/radioactivity; filed as Kd, often an IC50 or EC50 that approximates it; bounds were set here for any values at or beyond the usual limits of such assays
Conditions: source organism: Plasmodium falciparum 3D7
# strict inequality: Kd < 90 nM yields true (1), everything else yields false (0)

Problem: is_below(Kd, 90 nM) for KFNILSSPL ?
Solution: false (0)

Problem: Input SFFMNRFYI ; condition: Kd strictly below 90 nM. Does it hold?
Solution: false (0)

Problem: Just wondering, is Kd of QNADKNFLY below 90 nM?
Solution: false (0)

Problem: Given RYQDPQNYEL , is recorded Kd strictly lower than 90 nM?
Solution: true (1)

Problem: Report whether reported Kd is lower than 90 nM (strictly) for LIENELMNY
Solution: false (0)

Problem: Quick check: does LEASISGKY have Kd under 90 nM?
Solution: true (1)

Problem: # check: Kd < 90 nM for FVSSIFISFY
Solution: true (1)

====

Molecular target: HLA-A*29:02
Assay: IEDB peptide-MHC binding, purified MHC/competitive/radioactivity; filed as Kd, often an IC50 or EC50 that approximates it; bounds were set here for any values at or beyond the usual limits of such assays
Settings: source organism: Plasmodium falciparum 3D7
pKd: −log10 of the molar value.
Assign class by pKd: not lower than 7 means YES; lower than 7 means NO.

Problem: Please tell me: is the sequence TYGIIVPVL at or over 7 in terms of pKd?
Solution: NO

Problem: Evaluate FVSSIFISFY : pKd at minimum 7?
Solution: YES

Problem: In plain terms: is recorded pKd at least 7 for SSFFMNRFY ?
Solution: YES

Problem: State whether the measured pKd reaches 7, counting equality as reaching it, for LNEQLIYTY
Solution: NO

Problem: Confirm if pKd reported for the sequence NVDQQNDMY is 7 or above.
Solution: NO

Problem: Check this sequence for pKd at or above 7: VSSIFISFY
Solution: NO

Problem: Does the sequence QNADKNFLY have recorded pKd that is 7 or more?
Solution: YES

Problem: Textbook exercise: given the entry RYQDPQNYEL , state whether its pKd is greater than or equal to 7.
Solution: NO

====

Target: HLA-A*68:01
Assay: IEDB peptide-MHC binding, purified MHC/competitive/radioactivity; filed as Kd, often an IC50 or EC50 that approximates it; bounds were set here for any values at or beyond the usual limits of such assays
Conditions: source organism: Plasmodium falciparum 3D7
Record form. Attribute: Kd. Fill in for each entry.

Problem: Answer with reported Kd of ALKISQLQK
Solution: ≥ 10 µM

Problem: Give Kd for the following sequence: AFLESQSMNK
Solution: ≥ 10 µM

Problem: Tell us which Kd value is on record for SQDLACIFDA
Solution: ≥ 10 µM

====

Biological target: HLA-A*23:01
Experiment: IEDB peptide-MHC binding, purified MHC/competitive/radioactivity; filed as Kd, often an IC50 or EC50 that approximates it; bounds were set here for any values at or beyond the usual limits of such assays
Conditions: source organism: Plasmodium falciparum 3D7
Can you tell me pKd for the items I'm about to list?
The quantity pKd is defined as the negative base-10 logarithm of the molar concentration.

Problem: Complete the entry with pKd for YYNNFNNNY
Solution: 6.90

Problem: Output pKd of RYQDPQNYEL
Solution: 6.91

Problem: Provide measured pKd value, entry: LYYLFNQHI
Solution: 8.85

Problem: Name the recorded pKd of the item SYKSSKRDKF in your answer.
Solution: 6.10

Problem: Output measured pKd for this item: DFFLKSKFNI
Solution: 6.52

Problem: Identify measured pKd corresponding to VYRHCEYIL
Solution: 7.19

Problem: Specify measured pKd for IYYFDGNSW .
Solution: 8.21

Problem: Supply pKd value. Item: NFINFIKVL
Solution: 5.98

Problem: Answer with the recorded pKd for the sequence listed here: KYEALIKLL
Solution: 6.32

Problem: State its pKd for this sequence: TYGIIVPVL
Solution: 7.39

Problem: Identify pKd associated with the sequence TYKKKNNHI
Solution: 7.09

Problem: Report pKd, nothing else, for this sequence: MFVPKYFEL
Solution: 7.96
